Entry source: patent US20250235456A1

Measured pIC50 of individual entries
molecular target: CDK6/Cyclin D3 (Homo sapiens (Human), UniProt Q00534); assay: CDK6/Cyclin D3 ADP-Glo Kinase Assay; conditions: read-out: CDK6/CyclinD3 IC50
Sequence (Q00534 whole entry): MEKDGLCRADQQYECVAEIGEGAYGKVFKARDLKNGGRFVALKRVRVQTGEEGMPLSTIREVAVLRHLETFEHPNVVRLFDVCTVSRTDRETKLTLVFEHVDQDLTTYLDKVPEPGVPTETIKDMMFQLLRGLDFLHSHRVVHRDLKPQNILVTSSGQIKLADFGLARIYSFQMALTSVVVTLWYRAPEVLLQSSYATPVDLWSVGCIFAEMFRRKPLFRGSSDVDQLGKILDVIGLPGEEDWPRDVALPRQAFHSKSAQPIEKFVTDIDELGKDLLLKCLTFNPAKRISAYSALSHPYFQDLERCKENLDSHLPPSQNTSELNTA
Sequence (P30281 whole entry partner): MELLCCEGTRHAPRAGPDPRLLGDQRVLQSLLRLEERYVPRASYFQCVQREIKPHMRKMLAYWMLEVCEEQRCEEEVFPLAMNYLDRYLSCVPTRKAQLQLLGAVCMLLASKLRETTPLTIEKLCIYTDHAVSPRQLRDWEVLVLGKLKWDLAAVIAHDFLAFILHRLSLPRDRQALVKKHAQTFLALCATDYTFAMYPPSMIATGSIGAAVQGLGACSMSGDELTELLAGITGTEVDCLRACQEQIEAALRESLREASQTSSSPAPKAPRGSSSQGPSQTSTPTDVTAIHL
pIC50: −log10 of the molar value.

As a guide, the following entries are already answered.
COMPOUND | pIC50
CCN1CC2(C1)CN(c1ccc(Nc3ncc4ccnc(N5CCC6(C5)CC6(F)F)c4n3)nc1)C2 (stereo not shown) | > 6.70
Cc1cc2cnc(NC3CCN(S(C)(=O)=O)CC3)nc2c(C2CC(C)(CO)C2)n1 (stereo not shown) | > 6.70
Cc1cc2cnc(NC3CCN(S(C)(=O)=O)CC3)nc2c(N2CC3(CC(O)C3)C2)n1 | 6.30 to 6.70

Would you kindly look at the next entry?
Problem: Let me know recorded pIC50 for "Cc1cc2cnc(NC3CCN(S(C)(=O)=O)CC3)nc2c(N2CC3(CCC(=O)N3)C2)n1" , thanks.
Result: > 6.70

====

target: CDK4/Cyclin D1 (Homo sapiens (Human)); assay: CDK4/Cyclin D1 CHEF Assay; type: biochemical; conditions: AQT; read-out: CDK4/CyclinD1 AQT IC50
Sequence (P11802 whole entry, species assumed): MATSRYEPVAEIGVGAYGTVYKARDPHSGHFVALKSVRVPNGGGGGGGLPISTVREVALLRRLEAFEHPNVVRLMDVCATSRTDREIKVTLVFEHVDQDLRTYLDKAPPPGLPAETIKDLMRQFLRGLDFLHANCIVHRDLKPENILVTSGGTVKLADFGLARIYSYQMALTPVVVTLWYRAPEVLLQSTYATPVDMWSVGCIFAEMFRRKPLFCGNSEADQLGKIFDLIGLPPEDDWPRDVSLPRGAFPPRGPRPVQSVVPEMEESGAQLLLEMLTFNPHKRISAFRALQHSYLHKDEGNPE
Sequence (P24385 whole entry partner, species assumed): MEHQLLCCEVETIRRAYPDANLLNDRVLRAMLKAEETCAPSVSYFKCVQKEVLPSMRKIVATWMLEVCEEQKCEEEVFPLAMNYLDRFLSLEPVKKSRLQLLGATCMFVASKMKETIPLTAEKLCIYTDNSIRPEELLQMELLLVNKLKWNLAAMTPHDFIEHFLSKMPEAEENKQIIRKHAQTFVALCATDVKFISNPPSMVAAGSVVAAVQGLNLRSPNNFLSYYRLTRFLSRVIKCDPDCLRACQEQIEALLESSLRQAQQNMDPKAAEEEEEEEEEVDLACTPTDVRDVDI
OUTCOME MEASURE: IC50

As a guide, the following entries are already answered.
COMPOUND | OUTCOME MEASURE | READOUT VALUE
Cc1cc2cnc(NC3CCN(S(C)(=O)=O)CC3)nc2c(N2CC3(CCC(=O)N3)C2)n1 | IC50 | < 0.2 µM
Cc1cc2cnc(NC3CCN(S(=O)(=O)CC4CCCC4)CC3)nc2c(N2CC3(CCNC3)C2)n1 | IC50 | < 0.2 µM
O=S(=O)(C1CC1)N1CCC(Nc2ncc3cc(C(F)F)nc(N4CC5(CCNC5)C4)c3n2)CC1 | IC50 | < 0.2 µM
CS(=O)(=O)N1CCC(Nc2ncc3cc(C4CC4)nc(N4CC(F)(F)C5(CNC5)C4)c3n2)CC1 | IC50 | < 0.2 µM
Cc1cc2cnc(NC3CCN(S(=O)(=O)C4CC4)CC3)nc2c(N2CC3(CCNCC3(F)F)C2)n1 | IC50 | < 0.2 µM

Problem: State, for CDK4/Cyclin D1 (Homo sapiens (Human)), measured IC50 of the compound listed here: "Cc1cc2cnc(NC3CCN(S(=O)(=O)C4CC4)CC3)nc2c(N2CC(O)(C3CC3)C2)n1"
Result: < 0.2 µM

====

Measured IC50 of individual entries
molecular target: CDK6/Cyclin D3 (Homo sapiens (Human), UniProt Q00534); experiment: CDK6/Cyclin D3 ADP-Glo Kinase Assay; settings: read-out: CDK6/CyclinD3 IC50

As a guide, the following entries are already answered.
COMPOUND | MEASUREMENT TARGET | IC50
Cc1cc2cnc(NC3CCN(S(C)(=O)=O)CC3)nc2c(N2CC3(CNC(=O)C3)C2)n1 [Compound 81] | CDK6/Cyclin D3 (Homo sapiens (Human), UniProt Q00534) | 200 to 500 nM
Cc1cc2cnc(Nc3ccc(N4CC5(CN(C)C5)C4)cc3)nc2c(N2CC3(C2)CS(=O)(=O)C3)n1 [Compound 30] | CDK6/Cyclin D3 (Homo sapiens (Human), UniProt Q00534) | 200 to 500 nM
Cc1cc2cnc(NC3CCN(S(C)(=O)=O)CC3)nc2c(N2CC3(CNCC3F)C2)n1 (stereo not shown) [Compound 98] | CDK6/Cyclin D3 (Homo sapiens (Human), UniProt Q00534) | 200 to 500 nM

Would you kindly look at the next entry?
Problem: State, for CDK6/Cyclin D3 (Homo sapiens (Human), UniProt Q00534), measured IC50 of the compound listed here: Cc1cc2cnc(NC3CCN(S(=O)(=O)c4cnn(C)c4)CC3)nc2c(N2CC(F)(F)C3(CNC3)C2)n1 [Compound 89]
Result: < 200 nM
